# Tested on: Saccharomyces cerevisiae;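 also: PSI derived as read-weighted mean over the 8 sorting bins, only variants exceeding 10 total reads kept, mCherry placed adjacent to the peptide and sfGFP distal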
# ASSAY: protein stability index of tFT-peptide fusion in wild type (PSI (0-1 scale)); higher = more stable (slower turnover)
# TEST_PARAMETERS: genetic background: wild type
Everything with protein stability index lower than 0.2 is -1; everything else, including exactly 0.2, is 1.

[[record]]
sequence = "CLVKLPILLFFR"
assay_target = "Saccharomyces cerevisiae"
discrete_label = -1

[[record]]
sequence = "LVVYLSCNACIN"
assay_target = "Saccharomyces cerevisiae"
discrete_label = -1

[[record]]
sequence = "LKILRQKMNHSN"
assay_target = "Saccharomyces cerevisiae"
discrete_label = 1

[[record]]
sequence = "FSMRWSFRYWVN"
assay_target = "Saccharomyces cerevisiae"
discrete_label = -1

[[record]]
sequence = "FCMRWTFRYWVN"
assay_target = "Saccharomyces cerevisiae"
discrete_label = -1

[[record]]
sequence = "RSRRVLLPLYFR"
assay_target = "Saccharomyces cerevisiae"
discrete_label = 1

[[record]]
sequence = "LVYYLSCVACIN"
assay_target = "Saccharomyces cerevisiae"
discrete_label = -1

[[record]]
sequence = "AITLPMCPLLLRN"
assay_target = "Saccharomyces cerevisiae"
discrete_label = 1

[[record]]
sequence = "ARWRMGLWRGAS"
assay_target = "Saccharomyces cerevisiae"
discrete_label = 1

[[record]]
sequence = "RILRVLLPLYFR"
assay_target = "Saccharomyces cerevisiae"
discrete_label = 1

[[record]]
sequence = "CTSCEYKFRTNN"
assay_target = "Saccharomyces cerevisiae"
discrete_label = 1

[[record]]
sequence = "RRLRVLLPLYFR"
assay_target = "Saccharomyces cerevisiae"
discrete_label = 1

[[record]]
sequence = "SITLPMCPLLLR"
assay_target = "Saccharomyces cerevisiae"
discrete_label = 1

[[record]]
sequence = "QLVSLPILLFFR"
assay_target = "Saccharomyces cerevisiae"
discrete_label = -1

[[record]]
sequence = "ARWRVLLWRGAS"
assay_target = "Saccharomyces cerevisiae"
discrete_label = 1

[[record]]
sequence = "FSMRWTFRYWDN"
assay_target = "Saccharomyces cerevisiae"
discrete_label = -1

[[record]]
sequence = "KKHKKGQKIKIN"
assay_target = "Saccharomyces cerevisiae"
discrete_label = 1

[[record]]
sequence = "RLIQPLPHQFLN"
assay_target = "Saccharomyces cerevisiae"
discrete_label = -1


src = the supplement of paper PMC10724198
